Molecular target: T1, hANGPTL3(17-460)-His (human, UniProt Q9Y5C1 17-460)
T1 construct: Bought protein (R&D Systems); also called full-length mature human ANGPTL3 with a C-terminal decahistidine tag; Human ANGPTL3 (17-460)-His
T1 sequence: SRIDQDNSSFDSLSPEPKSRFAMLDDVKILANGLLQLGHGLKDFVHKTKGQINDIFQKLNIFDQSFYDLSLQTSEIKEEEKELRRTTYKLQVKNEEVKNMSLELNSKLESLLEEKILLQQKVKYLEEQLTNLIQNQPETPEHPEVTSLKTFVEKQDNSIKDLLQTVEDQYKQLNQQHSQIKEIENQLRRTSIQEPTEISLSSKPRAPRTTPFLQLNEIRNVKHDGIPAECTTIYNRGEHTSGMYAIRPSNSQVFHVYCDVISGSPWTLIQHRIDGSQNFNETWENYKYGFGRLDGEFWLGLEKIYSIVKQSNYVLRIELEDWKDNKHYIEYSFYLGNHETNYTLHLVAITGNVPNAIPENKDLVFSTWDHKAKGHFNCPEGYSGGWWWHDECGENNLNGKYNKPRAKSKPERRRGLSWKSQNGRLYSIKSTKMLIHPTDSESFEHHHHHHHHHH
Assay: SPR Biacore, antigen captured, 25C, pH 7.4, HBS-EP
Define the label as criterion met when Kd is strictly less than 0.4 nM and as criterion not met in all remaining cases.

[
  {
    "binder": "H4H1250P (antibody, IgG4, V domains shown) VH: QVQLVESGGGVVQPGRSLRLSCAASGFTFSSYGMHWVRQAPGKGLEWVAVISNDGSNKYYVDSVKGRFTMGRDNSKNTLYLQMNSLRVEDTAVYYCAKGAGTLYYYYYGMDVWGQGTTVTVSS VL: DIQMTQSPSTLSASVGNRVTITCRASQSISSWLAWYQQKPGKAPKFLIYKASSLESGVPSRFSGSGSGTEFTLTITSLQPDDFATYYCQQYNIYSWTFGQGTKVEIK",
    "assigned label": "criterion not met"
  },
  {
    "binder": "H4H1248P (antibody, IgG4, V domains shown) VH: QVQLVESGGGVVQPGRSLRLSCAASGFTFSSYGMHWVRQAPGKGLEWVAVISYDGSNKYYADSVKGRFTISRDNSKNTLYLQMNSLRAEDTAVYYCAKVGATTFYYYYGMDVWGQGTTVTVSS VL: DIQMTQSPSSVSAFVGDRVTITCRASQGISSWLAWYQQKPGKAPKLLIYAASSLQSGVPSRFSGSGSGTDFTLTISSLQPEDFATYYCQKANSFPFTFGPGTKVEIK",
    "assigned label": "criterion not met"
  },
  {
    "binder": "H4H1296P (antibody, IgG4, V domains shown) VH: QVQLVESGGVSVKPGGSLRLSCAASGFTFSDYYMSWIRQAPGKGLEWVSYIGSSGTNDYYADSVKGRFTISRDNAKNSLYLQMDSLRAEDTAVYYCARDSSQMGFDYWGQGTLVTVSS VL: DIQMTQSPSSLSASVGDRVTITCRASQNIINFLNWYQQRPGKAPQLLIYVAASLQSGVPSRFTGSGYGTDFTLTISSLQPEDFATYYCQQTYTNPLTFGGGTKVEIKR",
    "assigned label": "criterion met"
  },
  {
    "binder": "H4H1292P (antibody, IgG4, V domains shown) VH: QVQLVESGGGLVKPGGSLRLSCAASGFTFSDYYMSWIRQAPGKGLEWVSYISSSGSTIYYADSVKGRFTISRDNAKNSLYLQMNSLRAEDTAVYYCARDSSQLGFDYWGQGTLVTVSS VL: DIQMTQSPSSLSASVGDRVTITCRASQSIISFLNWYQQKPGKAPKLLIYTASSLQSGVPSRFSGSGSGTDFTLTISSLQPEDFATYYCQQTYSNPLTFGGGTKVEIKR",
    "assigned label": "criterion not met"
  }
]
